Below is a list of entries, each paired with its recorded IC50 value.
# assayed system: SHP2 (Homo sapiens (Human))
# assay comment: SHP2 Allosteric Inhibition Assay (DiFMUP prompt fluorescence)
# Type: biochemical
# condition description: 0.25 nM SHP2 activated with 0.5 μM peptide IRS1_pY1172(dPEG8)pY1222; substrate DiFMUP 100 μM; 25° C.
readout label: IC50

[[record]]
smiles_entry = "C[C@@H]1OCC2(CCN(c3cnc4c(N5CCN(C6COC6)c6cc(C#N)ccc65)n[nH]c4n3)CC2)[C@@H]1N"
recorded_measurement = "< 1000 nM"

[[record]]
smiles_entry = "C[C@@H]1OCC2(CCN(c3cnc4c(N5CCCc6nc(-c7ccnnc7)ccc65)n[nH]c4n3)CC2)[C@@H]1N"
recorded_measurement = "< 1000 nM"

[[record]]
smiles_entry = "C[C@@H]1OCC2(CCN(c3cnc4c(N5CCCc6nc(CC#N)ccc65)n[nH]c4n3)CC2)[C@@H]1N"
recorded_measurement = "< 1000 nM"

[[record]]
smiles_entry = "C[C@@H]1OCC2(CCN(c3cnc4c(N5CCCc6nc(N7CC[C@@H](O)C7)ccc65)n[nH]c4n3)CC2)[C@@H]1N"
recorded_measurement = "< 1000 nM"

[[record]]
smiles_entry = "C[C@@H]1OCC2(CCN(c3cnc4c(N5CCN([C@H]6C[C@@H](O)C6)c6cc(C#N)ccc65)n[nH]c4n3)CC2)[C@@H]1N"
recorded_measurement = "< 1000 nM"

[[record]]
smiles_entry = "Cn1cc(-c2ccc3c(n2)CCCN3c2n[nH]c3nc(N4CCC5(CC4)COC[C@H]5N)cnc23)cn1"
recorded_measurement = "< 1000 nM"

[[record]]
smiles_entry = "CC(C)NC(=O)c1ccc2c(n1)[C@@H](C)CCN2c1n[nH]c2nc(N3CCC4(CC3)CO[C@@H](C)[C@H]4N)cnc12"
recorded_measurement = "< 1000 nM"


====

# assayed system: SHP2 (Homo sapiens (Human), UniProt Q06124)
# Sequence (Q06124 whole entry): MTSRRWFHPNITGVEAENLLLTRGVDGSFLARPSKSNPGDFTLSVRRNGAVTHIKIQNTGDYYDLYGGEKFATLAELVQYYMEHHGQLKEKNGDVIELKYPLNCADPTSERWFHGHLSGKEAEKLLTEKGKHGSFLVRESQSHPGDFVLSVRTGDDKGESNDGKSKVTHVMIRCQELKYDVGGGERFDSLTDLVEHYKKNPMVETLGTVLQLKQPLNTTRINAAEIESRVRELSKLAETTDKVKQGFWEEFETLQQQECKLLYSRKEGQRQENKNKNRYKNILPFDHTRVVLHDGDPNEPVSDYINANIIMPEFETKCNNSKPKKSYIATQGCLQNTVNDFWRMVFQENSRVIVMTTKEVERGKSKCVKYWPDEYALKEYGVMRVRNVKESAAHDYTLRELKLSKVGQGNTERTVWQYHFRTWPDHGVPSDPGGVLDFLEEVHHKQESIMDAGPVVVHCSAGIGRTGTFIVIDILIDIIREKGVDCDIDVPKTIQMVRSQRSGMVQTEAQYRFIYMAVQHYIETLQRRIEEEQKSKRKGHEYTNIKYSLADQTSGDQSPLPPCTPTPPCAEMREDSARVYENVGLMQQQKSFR
# assay comment: SHP2 Allosteric Inhibition Assay (DiFMUP prompt fluorescence)
# condition description: 0.25 nM SHP2 activated with 0.5 μM peptide IRS1_pY1172(dPEG8)pY1222; substrate DiFMUP 100 μM; 25° C.
Structures can show the parent of a compound that is named as a salt.
readout label: IC50

[[record]]
compound = "C[C@@H]1OCC2(CCN(c3cnc4c(N5CCN(C)c6nc(C#N)ccc65)n[nH]c4n3)CC2)[C@@H]1N [Compound 383]"
recorded_measurement = "< 1 µM"

[[record]]
compound = "COCc1cccc2c1CCCN2c1n[nH]c2nc(N3CCC4(CC3)CO[C@@H](C)[C@H]4N)cnc12 [Compound 390]"
recorded_measurement = "< 1 µM"

[[record]]
compound = "C[C@@H]1OCC2(CCN(c3cnc4c(N5CC[C@H](C)c6nc(-c7cnn(C)c7)ccc65)n[nH]c4n3)CC2)[C@@H]1N [Compound 284]"
recorded_measurement = "< 1 µM"

[[record]]
compound = "C[C@@H]1OCC2(CCN(c3cnc4c(N5CCCc6nc(-c7ccnn7C)ccc65)n[nH]c4n3)CC2)[C@@H]1N [Compound 255, hydrochloride]"
recorded_measurement = "< 1 µM"

[[record]]
compound = "CNC(=O)Cc1ccc2c(n1)CCCN2c1n[nH]c2nc(N3CCC4(CC3)CO[C@@H](C)[C@H]4N)cnc12 [Compound 425]"
recorded_measurement = "< 1 µM"

[[record]]
compound = "NS(=O)(=O)C1CCCN(c2cnc3c(N4CCCc5ncccc54)n[nH]c3n2)C1 (centres unmarked) [Compound 137]"
recorded_measurement = "< 1 µM"

[[record]]
compound = "C[C@@H]1OCC2(CCN(c3cnc4c(N5CCCc6c5ccnc6N5CCOCC5)n[nH]c4n3)CC2)[C@@H]1N [Compound 307]"
recorded_measurement = "< 1 µM"

[[record]]
compound = "N[C@@H]1CCC[C@@]12CCN(c1cnc3c(N4CCCc5ncccc54)n[nH]c3n1)C2 (relative stereo) [Compound 206]"
recorded_measurement = "1 to 10 µM"

[[record]]
compound = "C[C@@H]1C[C@@H](N)CCN1c1cnc2c(N3CCCc4ncccc43)n[nH]c2n1 (stereo in doubt) [Compound 24]"
recorded_measurement = "< 1 µM"

[[record]]
compound = "CNC(=O)c1ccc2c(c1)CCN2c1n[nH]c2nc(N3CCC(C)(CN)CC3)cnc12 [Compound 113]"
recorded_measurement = "< 1 µM"

[[record]]
compound = "C[C@@H]1OCC2(CCN(c3cnc4c(N5CCN(C)c6ncccc65)n[nH]c4n3)CC2)[C@@H]1N [Compound 301]"
recorded_measurement = "< 1 µM"

[[record]]
compound = "CN1CCN(c2n[nH]c3nc(N4CCC(C)(CN)CC4)cnc23)c2ccccc21 [Compound 127]"
recorded_measurement = "< 1 µM"

[[record]]
compound = "C[C@@H]1OCC2(CCN(c3cnc4c(N5CCc6ccccc6C5)n[nH]c4n3)CC2)[C@@H]1N [Compound 268]"
recorded_measurement = "< 1 µM"

[[record]]
compound = "COCCN1CCN(c2n[nH]c3nc(N4CCC5(CC4)CO[C@@H](C)[C@H]5N)cnc23)c2ccc(C#N)cc21 [Compound 406]"
recorded_measurement = "< 1 µM"


Values compiled from patent US11591336B2.
